Molecular target: human AR (Homo sapiens, UniProt P10275)
Construct: expressed in transfected cells; host or cells: COS-1
Sequence (P10275 whole entry): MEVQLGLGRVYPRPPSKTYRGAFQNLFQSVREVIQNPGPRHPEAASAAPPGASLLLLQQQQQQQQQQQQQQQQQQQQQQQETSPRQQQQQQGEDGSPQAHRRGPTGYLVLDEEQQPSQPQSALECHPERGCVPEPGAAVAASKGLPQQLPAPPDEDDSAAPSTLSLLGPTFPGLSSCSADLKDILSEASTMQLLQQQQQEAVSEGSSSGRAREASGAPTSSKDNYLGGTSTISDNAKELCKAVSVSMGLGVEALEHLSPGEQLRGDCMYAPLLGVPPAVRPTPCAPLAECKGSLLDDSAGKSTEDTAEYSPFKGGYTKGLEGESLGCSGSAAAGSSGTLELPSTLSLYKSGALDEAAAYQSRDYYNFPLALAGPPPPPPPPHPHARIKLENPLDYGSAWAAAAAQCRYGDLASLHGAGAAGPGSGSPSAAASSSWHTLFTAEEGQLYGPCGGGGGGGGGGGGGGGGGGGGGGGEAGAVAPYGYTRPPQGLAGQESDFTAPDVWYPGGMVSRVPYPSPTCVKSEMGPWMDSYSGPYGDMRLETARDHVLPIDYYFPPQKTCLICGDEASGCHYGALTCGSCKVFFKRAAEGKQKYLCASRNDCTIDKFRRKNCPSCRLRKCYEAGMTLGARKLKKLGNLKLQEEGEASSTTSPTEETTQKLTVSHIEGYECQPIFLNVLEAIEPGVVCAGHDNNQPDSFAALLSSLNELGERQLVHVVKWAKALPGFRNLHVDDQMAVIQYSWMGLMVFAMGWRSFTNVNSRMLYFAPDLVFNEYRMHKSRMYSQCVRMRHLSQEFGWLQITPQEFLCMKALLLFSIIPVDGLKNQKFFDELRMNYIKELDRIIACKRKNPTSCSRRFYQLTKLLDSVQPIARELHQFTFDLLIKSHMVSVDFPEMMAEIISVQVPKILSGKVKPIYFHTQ
Assay: Competitive AR binding assay against [3H]-R1881 in transiently transfected COS-1 cells
Conditions: Table 2; compound 13.4 μM; [3H]-R1881 1.34 nM; complete inhibition equals 100%; read-out: Inhibition of [3H]-R1881 binding at 1.34 nM ± S.D.
Please enter True where inhibition at 13.4 µM is greater than or equal to 90%, and False where it is lower.

{"Compound": "N#Cc1ccc(C2=NOC3CCCCCCC23)cc1C(F)(F)F (stereo not drawn) [Example 92ab]", "Classification": "False"}
{"Compound": "N#Cc1ccc(C2=NOC3CCCCC23)c(C(F)(F)F)c1 (stereo not drawn) [Example 89a]", "Classification": "False"}
{"Compound": "Fc1ccc(C2=NOC3CCCCC23)c(C(F)(F)F)c1 (stereo not drawn) [Example 36a]", "Classification": "False"}
{"Compound": "Fc1ccc(C2=NOC3CCCCCCC23)cc1C(F)(F)F (stereo not drawn) [Example 43b]", "Classification": "False"}
{"Compound": "N#Cc1ccc(C2=NOC3CCCCCC23)c(C(F)(F)F)c1 (stereo not drawn) [Example 91a]", "Classification": "False"}
{"Compound": "N#Cc1ccc(C2=NOC3CCCCCC23)cc1C(F)(F)F (stereo not drawn) [Example 90ab]", "Classification": "True"}
{"Compound": "CC(C)(O)C(=O)Nc1ccc([N+](=O)[O-])c(C(F)(F)F)c1 [Hydroxyflutamide, reference compound]", "Classification": "True"}
{"Compound": "Fc1ccc(C2=NOC3CCCCCC23)cc1C(F)(F)F (stereo not drawn) [Example 39ab]", "Classification": "False"}
{"Compound": "O=[N+]([O-])c1ccc(C2=NOC3CCCCCC23)cc1C(F)(F)F (stereo not drawn) [Example 41ab]", "Classification": "True"}
{"Compound": "Fc1ccc(C2=NOC3CCCC23)cc1C(F)(F)F (stereo not drawn) [Example 19ab]", "Classification": "False"}
{"Compound": "N#Cc1ccc(C2=NOC3CCCCC23)cc1C(F)(F)F (stereo not drawn) [Example 88ab]", "Classification": "True"}

---

Molecular target: human AR (Homo sapiens, UniProt P10275)
Construct: expressed in transfected cells; host or cells: COS-1
Assay: AR antagonism assay: inhibition of transcriptional activation of AR (Probasin-luc reporter, COS-1 cells)
Type: cell-based
Conditions: COS-1, 18 h, compound 10.0 μM; relative luciferase response: 100% for testosterone (no antiandrogenic effect), 0% for complete antagonism; read-out: AR antagonism against 100 nM testosterone ± S.D.
Protocol: Determination of the Antiandrogen Activity. Testosterone was bought from Sigma Chemical Co. (St. Louis, Mo.) and hydroxyflutamide from Chemos GmbH. […] The luciferase activities were measured with Thermo Luminoscan Ascent scanner and the protein concentrations and β-galactosidase activities with Thermo Labsystem Multiscan Ex scanner. Also blank and control samples were measured. […]
Recorded remaining activity at 10 µM determines the label; the label ranges are lower range = under 20%, middle range = from 20% up to 50%, upper range = 50% and over

{"Compound": "O=[N+]([O-])c1ccc(C2=NOC3CCCCCC23)c(C(F)(F)F)c1 (stereo not drawn) [Example 42a]", "Classification": "lower range"}
{"Compound": "Fc1ccc(C2=NOC3CCCCCCC23)cc1C(F)(F)F (stereo not drawn) [Example 43a]", "Classification": "upper range"}
{"Compound": "N#Cc1cccc(C2=NOC3CCCCCC23)c1C(F)(F)F (stereo not drawn) [Example 95a]", "Classification": "lower range"}
{"Compound": "O=[N+]([O-])c1ccc(C2=NOC3CCCC23)cc1C(F)(F)F (single isomer, unassigned) [Example 21a]", "Classification": "lower range"}
{"Compound": "O=[N+]([O-])c1ccc(C2=NOC3CCCCCCC23)c(C(F)(F)F)c1 (stereo not drawn) [Example 46a]", "Classification": "lower range"}
{"Compound": "N#Cc1ccc(C2=NOC3CCCCCC23)c(C(F)(F)F)c1 (stereo not drawn) [Example 91a]", "Classification": "middle range"}
{"Compound": "Fc1ccc(C2=NOC3CCCCCC23)c(C(F)(F)F)c1 (stereo not drawn) [Example 40a]", "Classification": "middle range"}
{"Compound": "Fc1ccc(C2=NOC3CCCCC23)cc1C(F)(F)F (stereo not drawn) [Example 35ab]", "Classification": "upper range"}
{"Compound": "O=[N+]([O-])c1ccc(C2=NOC3CCCCC23)cc1 (stereo not drawn) [Example 34ab]", "Classification": "middle range"}

These measurements were taken from patent US9278942B2.
